- ASSAY_SYSTEM: Carnitine O-palmitoyltransferase 2, mitochondrial (Homo sapiens)
- Sequence (P23786 whole entry): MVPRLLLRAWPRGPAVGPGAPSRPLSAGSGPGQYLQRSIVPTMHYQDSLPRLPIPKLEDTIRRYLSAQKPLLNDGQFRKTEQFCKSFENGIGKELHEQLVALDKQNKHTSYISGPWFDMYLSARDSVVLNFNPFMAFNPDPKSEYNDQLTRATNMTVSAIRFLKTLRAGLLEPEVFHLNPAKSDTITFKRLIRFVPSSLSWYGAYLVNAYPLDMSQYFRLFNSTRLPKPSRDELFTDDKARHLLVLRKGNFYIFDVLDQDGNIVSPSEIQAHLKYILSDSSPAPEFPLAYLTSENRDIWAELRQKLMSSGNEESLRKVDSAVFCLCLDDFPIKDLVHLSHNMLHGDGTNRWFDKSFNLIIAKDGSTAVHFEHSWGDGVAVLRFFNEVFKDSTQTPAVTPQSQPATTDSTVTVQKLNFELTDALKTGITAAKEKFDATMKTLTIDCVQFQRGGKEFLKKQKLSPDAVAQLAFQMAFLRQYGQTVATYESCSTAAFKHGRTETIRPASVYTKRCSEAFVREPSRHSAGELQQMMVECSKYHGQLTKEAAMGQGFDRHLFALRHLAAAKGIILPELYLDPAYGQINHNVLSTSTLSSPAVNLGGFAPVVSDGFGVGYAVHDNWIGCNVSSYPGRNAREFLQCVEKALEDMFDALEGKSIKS
- EXPERIMENT_DESCRIPTION: SUPPLEMENTARY: Inhibition of Carnitine palmitoyltransferase 2
ENDPOINT_NAME: IC50 (µM)

Consider the following illustrative entries.
{"COMPOUND": "COc1ccc(Cl)cc1S(=O)(=O)N1COCc2ccc(C(=O)Nc3ccc(C(=O)O)cc3)cc21", "IC50 / µM": 3.45}
{"COMPOUND": "CN(C)C(=O)CCC(=O)Nc1cc(F)cc(-c2noc([C@H]3CCCCN3C(=O)COc3ccccc3)n2)c1", "IC50 / µM": 14.1}
{"COMPOUND": "Nc1cncc(-c2nc([C@H]3CCCCN3C(=O)COc3ccccc3)no2)c1", "IC50 / µM": 19}
{"COMPOUND": "O=C(COc1ccccc1)N1CCCC[C@@H]1c1noc(-c2ccc3[nH]c(=O)c(=O)[nH]c3c2)n1", "IC50 / µM": 17}
{"COMPOUND": "CCN(CC)C(=O)c1cncc(-c2noc([C@H]3CCCCN3C(=O)COc3ccccc3)n2)c1", "IC50 / µM": 9.18}

(a) CS(=O)(=O)c1ccc(-n2nnc([C@H]3CCCCN3C(=O)COc3ccccc3)n2)cc1
(b) COc1ccc(Cl)cc1S(=O)(=O)N(c1cc(C(=O)Nc2ccc(CC(=O)O)cc2)cc2c1OCO2)C(C)C
(c) COc1ccc(Cl)cc1S(=O)(=O)N1COc2c(Cl)cc(C(=O)Nc3ccc(C(=O)O)cc3)cc21
Sort low-to-high on IC50, please. Lab note: record answer as labels in requested order.
a, c, b
(a: 17.4 µM, c: 33.7 µM, b: 52.2 µM)

(P) O=C1CN(NC(=O)c2cccc(-c3n[nH]c([C@H]4CCCCN4C(=O)COc4ccccc4)n3)c2)C(=O)N1
(Q) O=C(COc1ccccc1)OCc1cc(-c2nc([C@H]3CCCCN3C(=O)COc3ccccc3)cs2)ccn1
(R) COc1ccc(Cl)cc1S(=O)(=O)N1CC[S+]([O-])c2ccc(C(=O)Nc3ccc(C(=O)O)cc3)cc21 (stereo not drawn)
Rank descending by IC50. Lab note: record answer as labels in requested order.
Q, P, R

----------
- ASSAY_SYSTEM: Carnitine O-palmitoyltransferase 1, muscle isoform (Homo sapiens, UniProt Q92523)
- Sequence (Q92523 whole entry, canonical isoform): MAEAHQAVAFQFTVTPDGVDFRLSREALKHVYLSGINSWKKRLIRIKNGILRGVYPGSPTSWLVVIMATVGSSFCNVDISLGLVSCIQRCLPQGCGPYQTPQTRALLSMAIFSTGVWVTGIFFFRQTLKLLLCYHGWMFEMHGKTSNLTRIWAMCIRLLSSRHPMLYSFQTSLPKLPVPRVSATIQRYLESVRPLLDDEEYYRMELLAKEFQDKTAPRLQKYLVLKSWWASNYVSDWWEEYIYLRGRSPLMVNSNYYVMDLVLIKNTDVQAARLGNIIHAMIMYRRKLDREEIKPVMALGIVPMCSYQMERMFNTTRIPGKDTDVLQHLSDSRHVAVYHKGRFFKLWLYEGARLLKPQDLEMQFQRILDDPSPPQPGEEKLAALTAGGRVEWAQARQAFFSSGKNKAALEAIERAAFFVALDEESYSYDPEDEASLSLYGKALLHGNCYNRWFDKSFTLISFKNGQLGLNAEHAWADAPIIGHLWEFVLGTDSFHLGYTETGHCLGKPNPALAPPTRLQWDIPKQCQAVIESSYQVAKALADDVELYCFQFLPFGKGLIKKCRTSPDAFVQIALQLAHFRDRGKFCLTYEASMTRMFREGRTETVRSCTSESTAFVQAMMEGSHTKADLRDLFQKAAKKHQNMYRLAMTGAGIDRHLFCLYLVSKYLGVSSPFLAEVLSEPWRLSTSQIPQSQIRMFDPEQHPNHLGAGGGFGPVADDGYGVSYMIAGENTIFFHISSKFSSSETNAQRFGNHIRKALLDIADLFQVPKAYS
- EXPERIMENT_DESCRIPTION: SUPPLEMENTARY: Inhibition of Carnitine palmitoyltransferase 1, muscle isoform
ENDPOINT_NAME: IC50 (µM)

{"MOLECULE_SMILES": "COc1ccc(Cl)cc1S(=O)(=O)N1COc2c(C)cc(C(=O)Nc3nc(CC(=O)O)cs3)cc21", "UNIT_OF_MEASURE": "µM", "IC50": 0.844}
{"MOLECULE_SMILES": "Cc1cc(C)cc(S(=O)(=O)c2nn(C)c3ccc(C(=O)Nc4ccc(C(=O)O)cc4)cc23)c1", "UNIT_OF_MEASURE": "µM", "IC50": 2.57}

(A) COc1ccc(Cl)cc1CN1C(=O)C2(CC2)c2ccc(C(=O)Nc3ccc(C(=O)O)cc3)cc21
(B) COc1ccc(Cl)cc1S(=O)(=O)N(C)c1cc(C(=O)Nc2nc(CC(=O)O)cs2)cc2c1OCCO2
(C) COc1ccc(Cl)cc1Cc1cn(C)c2ccc(C(=O)Nc3ccc(C(=O)O)cc3)cc12
(D) O=C(COc1ccccc1)N1CCCC[C@@H]1c1nc(-c2ccc(O)cc2)cs1
Rank descending by IC50. Lab note: record answer as labels in requested order.
D, A, C, B
(D: 34.5 µM, A: 11 µM, C: 2.33 µM, B: 1.56 µM)

----------
- EXPERIMENT_DESCRIPTION: SUPPLEMENTARY: Lipophilicity (log D) Determination by high-throughput shake-flask
- Type: physicochemical
- EXPERIMENTAL_CONTEXT: octanol/water
ENDPOINT_NAME: logD

Consider the following illustrative entries.
{"MOLECULE_SMILES": "CNC(=O)c1cncc(-c2noc([C@H]3CCCCN3C(=O)COc3ccccc3)n2)c1", "logD": 2.09}
{"MOLECULE_SMILES": "CC(=O)Nc1cc(F)cc(-c2n[nH]c([C@H]3CCCCN3C(=O)COc3ccccc3)n2)c1", "logD": 3.22}
{"MOLECULE_SMILES": "O=C(COc1ccccc1)N1CCCC[C@@H]1c1noc(-c2cccc(-n3cc[nH]c3=O)c2)n1", "logD": 2.66}
{"MOLECULE_SMILES": "O=C(Nc1ccc(C(=O)O)c(Cl)c1)c1ccc2c(c1)N(S(=O)(=O)c1cc(Cl)cc(Cl)c1)CC2", "logD": 2.67}

(a) NC(=O)COc1cccc(-c2noc([C@H]3CCCCN3C(=O)COc3ccccc3)n2)c1
(b) COc1ccc(C)cc1S(=O)(=O)N1CCCc2ccc(C(=O)Nc3ccc(C(=O)O)c(F)c3)cc21
(c) COc1ccc(Cl)cc1S(=O)(=O)N1CCOc2ccc(C(=O)Nc3ccc(C(=O)O)c(F)c3)cc21
(d) COc1ccc(Cl)cc1S(=O)(=O)N1COc2c(C)cc(C(=O)Nc3nc(CC(=O)O)cs3)cc21
Rank descending by logD. Lab note: record answer as labels in requested order.
a, b, d, c
(a: 2.51, b: 0.88, d: 0.58, c: 0.29)

----------
- ASSAY_SYSTEM: Carnitine O-palmitoyltransferase 1, liver isoform (Rattus norvegicus, UniProt P32198)
- Sequence (P32198 whole entry): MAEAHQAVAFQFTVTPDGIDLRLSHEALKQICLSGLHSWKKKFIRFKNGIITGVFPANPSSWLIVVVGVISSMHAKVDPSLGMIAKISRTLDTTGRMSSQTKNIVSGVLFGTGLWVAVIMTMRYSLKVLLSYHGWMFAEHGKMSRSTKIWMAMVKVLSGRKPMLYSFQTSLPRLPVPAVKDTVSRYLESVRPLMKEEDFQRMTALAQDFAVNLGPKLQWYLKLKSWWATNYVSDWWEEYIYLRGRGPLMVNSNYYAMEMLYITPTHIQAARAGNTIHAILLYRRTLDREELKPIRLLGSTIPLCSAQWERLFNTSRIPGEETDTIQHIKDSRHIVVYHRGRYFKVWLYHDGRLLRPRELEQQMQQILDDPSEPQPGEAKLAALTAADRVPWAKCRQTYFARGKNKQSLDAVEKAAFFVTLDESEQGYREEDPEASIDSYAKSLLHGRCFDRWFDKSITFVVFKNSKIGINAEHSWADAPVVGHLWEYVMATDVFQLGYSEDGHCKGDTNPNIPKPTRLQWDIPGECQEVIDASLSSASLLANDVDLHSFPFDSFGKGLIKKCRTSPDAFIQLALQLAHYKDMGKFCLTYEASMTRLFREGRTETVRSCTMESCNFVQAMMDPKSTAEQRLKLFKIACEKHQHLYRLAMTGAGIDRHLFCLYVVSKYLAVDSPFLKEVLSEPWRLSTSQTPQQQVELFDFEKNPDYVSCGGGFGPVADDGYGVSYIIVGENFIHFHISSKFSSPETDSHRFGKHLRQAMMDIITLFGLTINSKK
- EXPERIMENT_DESCRIPTION: SUPPLEMENTARY: Inhibition of Carnitine palmitoyltransferase 1, liver isoform
ENDPOINT_NAME: IC50 (nM)

Consider the following illustrative entries.
{"MOLECULE": "CC(=O)Nc1ccc(-c2nc([C@H]3CCCCN3C(=O)COc3ccccc3)cs2)cc1", "EXPERIMENTAL_VALUE": 179}
{"MOLECULE": "COCCN(c1cc(C(=O)Nc2ncc(CC(=O)O)s2)cc2c1OCO2)S(=O)(=O)c1cc(Cl)ccc1OC", "EXPERIMENTAL_VALUE": 157}

(1) COc1ccc(Cl)cc1S(=O)(=O)N1CCOc2ncc(C(=O)Nc3ccccc3)cc21
(2) O=C(COc1ccccc1)N1CCCC[C@@H]1c1noc(-c2ccc3cccnc3n2)n1
(3) O=C(COc1ccccc1)N1CCCC[C@@H]1c1nnn(-c2ccccc2)n1
(4) COC[C@@H]1CCN(NC(=O)c2cccc(-c3n[nH]c([C@H]4CCCCN4C(=O)COc4ccccc4)n3)c2)C1
(5) O=C(O)c1ccc(NC(=O)c2ccc3ccn(S(=O)(=O)c4cccc(Cl)c4)c3c2)cc1
Rank descending by IC50. Lab note: record answer as labels in requested order.
4, 1, 2, 3, 5

(I) N#Cc1ccc(-c2csc([C@H]3CCCCN3C(=O)COc3ccccc3)n2)cc1
(II) N#Cc1cccc(-c2csc([C@H]3CCCCN3C(=O)COc3ccccc3)n2)c1
Returns the identifier with the smallest measured IC50 among I and II . State your choice using its label.
II
(II: 128 nM, I: 245 nM)

(A) CC(=O)Nc1cc(-c2nc([C@H]3CCCCN3C(=O)COc3ccccc3)no2)ccn1
(B) O=C(c1cc(-c2noc([C@H]3CCCCN3C(=O)COc3ccccc3)n2)ccn1)N1CCOCC1
Returns the identifier with the smallest measured IC50 among A and B . State your choice using its label.
A
